System: bed bug eggs
Format: in vivo, Cimex lectularius L.
Settings: […] neem oil + named solvent in isopropanol; 4 h dried residue; 3 weeks after infestation
Source text: Immediately after infestation, and at 1-, 2-, and 3-week intervals thereafter, the numbers of hatched and unhatched eggs present in the sealed dishes were counted and compared to other Treated Groups. One egg was counted as “hatched” for every new nymph present in the petri dish when compared with the prior interval. Table 13 compares the % egg eclosion of the treated groups at the 3-week observation interval. […]
Please respond with reported % Eclosion for every item in the list.
Answers are plain numbers, in %.

Some solved cases for reference:
>  <compound>
CC(=O)OC1CCCCC1C(C)(C)C (stereo not drawn) [2-tert-Butylcyclohexylacetate]

>  <reported_result>
20

$$$$
>  <compound>
CCOC(C)=O [Ethyl acetate]

>  <reported_result>
100

$$$$
>  <compound>
CC(C)C(=O)c1ccccc1

>  <reported_result>
0

$$$$
>  <compound>
CC(O)c1ccccc1 (stereo not drawn)

>  <reported_result>
0

$$$$
>  <compound>
CC(=O)c1ccc(C)cc1C

>  <reported_result>
0

$$$$

Return reported % Eclosion values for all items listed beneath this line.
1. CCC(=O)c1ccccc1
2. O=C(O)c1ccccc1
3. O=C(c1ccc(O)cc1O)c1ccc(O)cc1O [2,2′-4,4′ Tetrahydroxybenzophenone]
4. CCCOC(=O)c1ccc(O)cc1 [Propyl-4-hydroxybenzoate]

Response line:
1. 0
2. 0
3. 0
4. 0

====

test system: adult bed bugs; type: in vivo; conditions: in vivo
endpoint_name: Max. Mortality

Some solved cases for reference:
>  <compound>
CCC(C)O (stereo not drawn) [Solution 2-Butanol, 2-Butanol]

>  <target>
adult bed bugs

>  <Max. Mortality>
20%

$$$$
>  <compound>
O=C(O)c1ccccc1 [Benzoic acid]

>  <target>
adult bed bugs

>  <Max. Mortality>
100%

$$$$
>  <compound>
CCCCCCO [Solution 1-Hexanol, 1-Hexanol]

>  <target>
adult bed bugs

>  <Max. Mortality>
40%

$$$$
>  <compound>
CCCCCCCCCCO [Solution 1-Decanol, 1-Decanol]

>  <target>
adult bed bugs

>  <Max. Mortality>
100%

$$$$

Return reported Max. Mortality values for all items listed beneath this line.
1. CCCCO [Solution 1-Butanol, 1-Butanol]
2. CCCCC(CC)CO (stereo not drawn) [2-Ethyl-1-hexanol]

Response line:
1. 40%
2. 100%

====

test system: adult bed bugs; type: in vivo; details: […] neem oil + […] named solvent in isopropanol; 4 h dried residue
endpoint_name: Time to Max Mortality (h)
Numbers only, in h.

Some solved cases for reference:
>  <molecule>
CC(=O)c1ccc(C)cc1

>  <Time to Max Mortality (h)>
48

$$$$
>  <molecule>
CC(=O)C1CCCCC1

>  <Time to Max Mortality (h)>
264

$$$$
>  <molecule>
CC(=O)c1ccc(C)c(C)c1

>  <Time to Max Mortality (h)>
48

$$$$
>  <molecule>
CCC(=O)c1ccccc1

>  <Time to Max Mortality (h)>
24

$$$$
>  <molecule>
O=Cc1ccccc1

>  <Time to Max Mortality (h)>
336

$$$$

Return reported Time to Max Mortality values for all items listed beneath this line.
1. CCCC(=O)c1ccccc1
2. CC(=O)c1ccccc1
3. OCc1ccccc1

Response line:
[24, 24, 24]

Return reported Time to Max Mortality values for all items listed beneath this line.
1. O=C(c1ccc(O)cc1O)c1ccc(O)cc1O [2,2′-4,4′ Tetrahydroxybenzophenone]
2. CCCCC(=O)c1ccccc1
3. CC(=O)c1ccc(C)cc1C
4. CCCCCC(=O)c1ccccc1
5. CCCOC(=O)c1ccc(O)cc1 [Propyl-4-hydroxybenzoate]
6. CC(C)C(=O)c1ccccc1

Response line:
1: 24; 2: 24; 3: 24; 4: 140; 5: 24; 6: 48

Return reported Time to Max Mortality values for all items listed beneath this line.
1. CC(O)c1ccccc1 (stereo not drawn)
2. CC(C)O
3. CCC(=O)c1ccc(C)cc1
4. CC(=O)OC1CCCCC1C(C)(C)C (stereo not drawn) [2-tert-Butylcyclohexylacetate]
5. OC1CCCCC1
6. O=C1CCCCC1

Response line:
24
140
24
96
336
240

Prompt line: Report measured Time to Max Mortality; entry is CCOC(C)=O [Ethyl acetate]
Response line: 336

Values were extracted from patent US9999218B2.
